molecular target: Phosphatidylinositol 4,5-bisphosphate 3-kinase catalytic subunit alpha isoform (Homo sapiens, UniProt P42336); experiment: Inhibition of human PI3Kalpha-mediated Akt phosphorylation at Ser473 residue expressed in human H460 cells after 0.5 to 2 hrs by Western blot analysis; format: cell-based
Sequence (P42336 whole entry, canonical isoform): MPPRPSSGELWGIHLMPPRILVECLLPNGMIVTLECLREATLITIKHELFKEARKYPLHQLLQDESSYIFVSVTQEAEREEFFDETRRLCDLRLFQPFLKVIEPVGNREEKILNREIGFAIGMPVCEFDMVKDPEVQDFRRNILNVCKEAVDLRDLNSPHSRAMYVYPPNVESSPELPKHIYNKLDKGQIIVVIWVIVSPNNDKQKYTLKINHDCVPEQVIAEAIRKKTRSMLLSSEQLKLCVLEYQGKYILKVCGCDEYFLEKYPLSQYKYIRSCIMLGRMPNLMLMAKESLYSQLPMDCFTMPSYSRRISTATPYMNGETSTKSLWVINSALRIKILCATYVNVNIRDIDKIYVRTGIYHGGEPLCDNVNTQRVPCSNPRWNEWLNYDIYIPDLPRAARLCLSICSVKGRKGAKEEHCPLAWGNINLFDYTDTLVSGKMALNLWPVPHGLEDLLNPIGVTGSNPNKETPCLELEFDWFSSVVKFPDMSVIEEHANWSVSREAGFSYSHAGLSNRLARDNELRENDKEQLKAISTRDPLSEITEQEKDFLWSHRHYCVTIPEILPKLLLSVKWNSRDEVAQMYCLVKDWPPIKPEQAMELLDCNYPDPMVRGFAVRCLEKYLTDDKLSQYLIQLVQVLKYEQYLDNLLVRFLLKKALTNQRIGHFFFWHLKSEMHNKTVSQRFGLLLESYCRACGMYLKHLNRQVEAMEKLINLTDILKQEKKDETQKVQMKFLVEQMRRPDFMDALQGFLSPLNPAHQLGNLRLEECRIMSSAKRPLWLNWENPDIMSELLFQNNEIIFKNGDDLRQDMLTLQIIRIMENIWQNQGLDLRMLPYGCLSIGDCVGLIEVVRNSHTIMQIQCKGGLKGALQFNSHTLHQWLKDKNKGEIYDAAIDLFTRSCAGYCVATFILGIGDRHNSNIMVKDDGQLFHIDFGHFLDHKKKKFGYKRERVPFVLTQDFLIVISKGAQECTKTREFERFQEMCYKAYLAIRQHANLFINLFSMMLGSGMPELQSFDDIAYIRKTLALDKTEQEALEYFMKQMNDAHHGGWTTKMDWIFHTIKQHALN
pIC50: −log10 of the molar value.

>  <molecule>
Cc1cc(C(C)Nc2ccccc2)c2nc(N3CCOCC3)cc(=O)n2c1 (configuration not stated)

>  <pIC50>
< 6.00

$$$$
>  <molecule>
Cn1c(Cc2nc(N3CCOCC3)cc(=O)[nH]2)nc2ccccc21

>  <pIC50>
< 5.00

$$$$

###

target: Cytochrome P450 3A4 (Homo sapiens); assay: Inhibition of human recombinant CPY3A4
Sequence (P08684 whole entry): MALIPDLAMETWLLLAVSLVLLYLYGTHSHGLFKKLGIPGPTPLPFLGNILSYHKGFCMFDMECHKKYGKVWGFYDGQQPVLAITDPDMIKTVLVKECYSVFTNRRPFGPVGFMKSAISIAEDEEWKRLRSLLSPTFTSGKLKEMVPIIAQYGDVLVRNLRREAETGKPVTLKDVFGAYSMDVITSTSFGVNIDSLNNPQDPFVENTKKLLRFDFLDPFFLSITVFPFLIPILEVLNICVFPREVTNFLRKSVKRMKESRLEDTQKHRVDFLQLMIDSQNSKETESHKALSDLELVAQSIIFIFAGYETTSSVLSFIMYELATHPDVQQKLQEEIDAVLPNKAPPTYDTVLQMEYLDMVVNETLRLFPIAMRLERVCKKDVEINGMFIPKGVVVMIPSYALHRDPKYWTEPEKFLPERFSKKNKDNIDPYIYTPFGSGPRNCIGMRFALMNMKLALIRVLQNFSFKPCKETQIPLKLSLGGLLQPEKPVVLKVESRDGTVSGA
Each record here notes measured IC50.
assay-metric: IC50

>  <chem-smiles>
O=c1cc(N2CCOCC2)nc(Cc2nc3cccc(-c4ccccc4)c3o2)[nH]1

>  <test-system>
Cytochrome P450 3A4 (Homo sapiens)

>  <assay-metric>
IC50

>  <value-reported>
> 40 µM

$$$$
>  <chem-smiles>
O=c1cc(N2CCOCC2)nc(Cc2nc3ccc(Cl)cc3[nH]2)[nH]1

>  <test-system>
Cytochrome P450 3A4 (Homo sapiens)

>  <assay-metric>
IC50

>  <value-reported>
> 40 µM

$$$$
>  <chem-smiles>
O=c1cc(N2CCOCC2)nc(Cc2nc3cc(Br)ccc3[nH]2)[nH]1

>  <test-system>
Cytochrome P450 3A4 (Homo sapiens)

>  <assay-metric>
IC50

>  <value-reported>
> 40 µM

$$$$
>  <chem-smiles>
CCn1c(Cc2nc(N3CCOCC3)cc(=O)[nH]2)nc2ccccc21

>  <test-system>
Cytochrome P450 3A4 (Homo sapiens)

>  <assay-metric>
IC50

>  <value-reported>
> 40 µM

$$$$
>  <chem-smiles>
O=c1cc(N2CCOCC2)nc(Cc2nc3ccccc3o2)[nH]1

>  <test-system>
Cytochrome P450 3A4 (Homo sapiens)

>  <assay-metric>
IC50

>  <value-reported>
> 40 µM

$$$$
>  <chem-smiles>
O=c1cc(N2CCOCC2)nc(Cc2nc3cc(F)ccc3o2)[nH]1

>  <test-system>
Cytochrome P450 3A4 (Homo sapiens)

>  <assay-metric>
IC50

>  <value-reported>
> 40 µM

$$$$
>  <chem-smiles>
Cn1c(Cc2nc(N3CCOCC3)cc(=O)[nH]2)nc2cc(F)ccc21

>  <test-system>
Cytochrome P450 3A4 (Homo sapiens)

>  <assay-metric>
IC50

>  <value-reported>
> 40 µM

$$$$
>  <chem-smiles>
O=c1cc(N2CCOCC2)nc(Cc2nc3c(-c4cccs4)cccc3o2)[nH]1

>  <test-system>
Cytochrome P450 3A4 (Homo sapiens)

>  <assay-metric>
IC50

>  <value-reported>
19 µM

$$$$
>  <chem-smiles>
Cn1c(Cc2nc(N3CCOCC3)cc(=O)[nH]2)nc2c(-c3ccccc3)cccc21

>  <test-system>
Cytochrome P450 3A4 (Homo sapiens)

>  <assay-metric>
IC50

>  <value-reported>
> 40 µM

$$$$
>  <chem-smiles>
O=c1cc(N2CCOCC2)nc(Cc2nc3cc(F)ccc3n2C2CC2)[nH]1

>  <test-system>
Cytochrome P450 3A4 (Homo sapiens)

>  <assay-metric>
IC50

>  <value-reported>
> 40 µM

$$$$

###

Each record here notes measured solubility thermodynamic at 16 h.
assay: Thermodynamic solubility of the compound in phosphate buffer at pH 7.4 after 16 hrs by HPLC analysis; type: physicochemical; conditions: read-out: Therm_solubility
assay-metric: solubility thermodynamic at 16 h (µM)

>  <chem-smiles>
O=c1cc(N2CCOCC2)nc(Cc2nc3ccccc3n2-c2ccccc2)[nH]1

>  <endpoint-unit>
µM

>  <value-reported>
397

$$$$
>  <chem-smiles>
O=c1cc(N2CCOCC2)nc(Cc2nc3cccc(-c4ccccc4)c3o2)[nH]1

>  <endpoint-unit>
µM

>  <value-reported>
3

$$$$
>  <chem-smiles>
O=c1cc(N2CCOCC2)nc(Cc2nc3c(-c4ccccc4)cccc3o2)[nH]1

>  <endpoint-unit>
µM

>  <value-reported>
3

$$$$
>  <chem-smiles>
Cn1c(Cc2nc(N3CCOCC3)cc(=O)[nH]2)nc2cc(F)ccc21

>  <endpoint-unit>
µM

>  <value-reported>
3

$$$$
>  <chem-smiles>
O=c1cc(N2CCOCC2)nc(Cc2nc3ccc(Cl)cc3[nH]2)[nH]1

>  <endpoint-unit>
µM

>  <value-reported>
3

$$$$
